Details: 350.15 K; 101.33 kPa; Liquid; Vibrating tube method
± gives the expanded uncertainty stated by the source.
Would you kindly list mass density for each of these compounds?
Write the numeric value and append its unit.

GET /values?readout=mass density&item= CCn1cc[n+](C)c1.O=S(=O)([O-])O [1-ethyl-3-methylimidazolium hydrogen sulfate]
1334.35 ± 0.56 kg/m3

GET /values?readout=mass density&item= CCCCCCOS(=O)(=O)[O-].CC[n+]1ccn(C)c1 [3-ethyl-1-methyl-1H-imidazolium hexyl sulfate]
1096.39 ± 1 kg/m3

GET /values?readout=mass density&item= CCCCCCCCOS(=O)(=O)[O-].CCn1cc[n+](C)c1 [1-ethyl-3-methylimidazolium octyl sulfate]
1061.69 ± 0.97 kg/m3

GET /values?readout=mass density&item= CCCCOS(=O)(=O)[O-].CC[n+]1ccn(C)c1 [3-ethyl-1-methylimidazolium butyl sulfate]
1141.85 ± 1.1 kg/m3

GET /values?readout=mass density&item= CCn1cc[n+](C)c1.COS(=O)(=O)[O-] [1-ethyl-3-methylimidazolium methylsulfate]
1251.23 ± 0.5 kg/m3

----------
Would you kindly list mass density for each of these molecules?
Conditions: 359.15 K; 101.33 kPa; Liquid; Vibrating tube method
Numbers after ± are expanded uncertainties.
Write the numeric value and append its unit.

GET /values?readout=mass density&item= CCCCOS(=O)(=O)[O-].CC[n+]1ccn(C)c1 [3-ethyl-1-methylimidazolium butyl sulfate]
1136.09 ± 1.1 kg/m3

GET /values?readout=mass density&item= CCCCCCOS(=O)(=O)[O-].CC[n+]1ccn(C)c1 [3-ethyl-1-methyl-1H-imidazolium hexyl sulfate]
1090.69 ± 1 kg/m3

GET /values?readout=mass density&item= CCn1cc[n+](C)c1.COS(=O)(=O)[O-] [1-ethyl-3-methylimidazolium methylsulfate]
1245.38 ± 0.5 kg/m3

GET /values?readout=mass density&item= CCn1cc[n+](C)c1.O=S(=O)([O-])O [1-ethyl-3-methylimidazolium hydrogen sulfate]
1329.02 ± 0.56 kg/m3

GET /values?readout=mass density&item= CCCCCCCCOS(=O)(=O)[O-].CCn1cc[n+](C)c1 [1-ethyl-3-methylimidazolium octyl sulfate]
1056 ± 0.95 kg/m3

----------
Conditions: 331.15 K; 101.33 kPa; Liquid; Vibrating tube method
recorded_endpoint: mass density (kg/m3)
Report only the number, with the unit kg/m3 understood.

GET /values?readout=mass density&item= CCCCCCCCOS(=O)(=O)[O-].CCn1cc[n+](C)c1 [1-ethyl-3-methylimidazolium octyl sulfate]
1073.87

GET /values?readout=mass density&item= CCCCOS(=O)(=O)[O-].CC[n+]1ccn(C)c1 [3-ethyl-1-methylimidazolium butyl sulfate]
1154.16

GET /values?readout=mass density&item= CCn1cc[n+](C)c1.O=S(=O)([O-])O [1-ethyl-3-methylimidazolium hydrogen sulfate]
1345.82

GET /values?readout=mass density&item= CCCCCCOS(=O)(=O)[O-].CC[n+]1ccn(C)c1 [3-ethyl-1-methyl-1H-imidazolium hexyl sulfate]
1108.56

GET /values?readout=mass density&item= CCn1cc[n+](C)c1.COS(=O)(=O)[O-] [1-ethyl-3-methylimidazolium methylsulfate]
1263.72

----------
Settings: 315.15 K; 101.33 kPa; Liquid; Vibrating tube method
Would you kindly list mass density for each of these molecules?
Report only the number, with the unit kg/m3 understood.

GET /values?readout=mass density&item= CCn1cc[n+](C)c1.O=S(=O)([O-])O [1-ethyl-3-methylimidazolium hydrogen sulfate]
1355.67

GET /values?readout=mass density&item= CCCCOS(=O)(=O)[O-].CC[n+]1ccn(C)c1 [3-ethyl-1-methylimidazolium butyl sulfate]
1164.73

GET /values?readout=mass density&item= CCCCCCCCOS(=O)(=O)[O-].CCn1cc[n+](C)c1 [1-ethyl-3-methylimidazolium octyl sulfate]
1084.36

GET /values?readout=mass density&item= CCn1cc[n+](C)c1.COS(=O)(=O)[O-] [1-ethyl-3-methylimidazolium methylsulfate]
1274.41

GET /values?readout=mass density&item= CCCCCCOS(=O)(=O)[O-].CC[n+]1ccn(C)c1 [3-ethyl-1-methyl-1H-imidazolium hexyl sulfate]
1119.04

----------
Conditions: 317.15 K; 101.33 kPa; Liquid; Vibrating tube method
Would you kindly list mass density for each of these compounds?
Report only the number, with the unit kg/m3 understood.

GET /values?readout=mass density&item= CCn1cc[n+](C)c1.O=S(=O)([O-])O [1-ethyl-3-methylimidazolium hydrogen sulfate]
1354.43

GET /values?readout=mass density&item= CCn1cc[n+](C)c1.COS(=O)(=O)[O-] [1-ethyl-3-methylimidazolium methylsulfate]
1273.07

GET /values?readout=mass density&item= CCCCCCCCOS(=O)(=O)[O-].CCn1cc[n+](C)c1 [1-ethyl-3-methylimidazolium octyl sulfate]
1083.04

GET /values?readout=mass density&item= CCCCCCOS(=O)(=O)[O-].CC[n+]1ccn(C)c1 [3-ethyl-1-methyl-1H-imidazolium hexyl sulfate]
1117.72

GET /values?readout=mass density&item= CCCCOS(=O)(=O)[O-].CC[n+]1ccn(C)c1 [3-ethyl-1-methylimidazolium butyl sulfate]
1163.39

----------
Would you kindly list mass density for each of these compounds?
Conditions: 329.15 K; 101.33 kPa; Liquid; Vibrating tube method
Report only the number, with the unit kg/m3 understood.

GET /values?readout=mass density&item= CCn1cc[n+](C)c1.O=S(=O)([O-])O [1-ethyl-3-methylimidazolium hydrogen sulfate]
1347.04

GET /values?readout=mass density&item= CCn1cc[n+](C)c1.COS(=O)(=O)[O-] [1-ethyl-3-methylimidazolium methylsulfate]
1265.05

GET /values?readout=mass density&item= CCCCCCOS(=O)(=O)[O-].CC[n+]1ccn(C)c1 [3-ethyl-1-methyl-1H-imidazolium hexyl sulfate]
1109.86

GET /values?readout=mass density&item= CCCCOS(=O)(=O)[O-].CC[n+]1ccn(C)c1 [3-ethyl-1-methylimidazolium butyl sulfate]
1155.47

GET /values?readout=mass density&item= CCCCCCCCOS(=O)(=O)[O-].CCn1cc[n+](C)c1 [1-ethyl-3-methylimidazolium octyl sulfate]
1075.17

----------
Conditions: 298.15 K; 101.33 kPa; Liquid; Vibrating tube method
recorded_endpoint: mass density (kg/m3)
Report only the number, with the unit kg/m3 understood.

GET /values?readout=mass density&item= CCCCCCCCOS(=O)(=O)[O-].CCn1cc[n+](C)c1 [1-ethyl-3-methylimidazolium octyl sulfate]
1095.65

GET /values?readout=mass density&item= CCCCOS(=O)(=O)[O-].CC[n+]1ccn(C)c1 [3-ethyl-1-methylimidazolium butyl sulfate]
1176.24

GET /values?readout=mass density&item= CCn1cc[n+](C)c1.COS(=O)(=O)[O-] [1-ethyl-3-methylimidazolium methylsulfate]
1286.02

GET /values?readout=mass density&item= CCn1cc[n+](C)c1.O=S(=O)([O-])O [1-ethyl-3-methylimidazolium hydrogen sulfate]
1365.77

GET /values?readout=mass density&item= CCCCCCOS(=O)(=O)[O-].CC[n+]1ccn(C)c1 [3-ethyl-1-methyl-1H-imidazolium hexyl sulfate]
1130.42

----------
Details: 342.15 K; 101.33 kPa; Liquid; Vibrating tube method
Would you kindly list mass density for each of these compounds?
Report only the number, with the unit kg/m3 understood.

GET /values?readout=mass density&item= CCCCOS(=O)(=O)[O-].CC[n+]1ccn(C)c1 [3-ethyl-1-methylimidazolium butyl sulfate]
1147.01

GET /values?readout=mass density&item= CCn1cc[n+](C)c1.COS(=O)(=O)[O-] [1-ethyl-3-methylimidazolium methylsulfate]
1256.47

GET /values?readout=mass density&item= CCCCCCCCOS(=O)(=O)[O-].CCn1cc[n+](C)c1 [1-ethyl-3-methylimidazolium octyl sulfate]
1066.79

GET /values?readout=mass density&item= CCCCCCOS(=O)(=O)[O-].CC[n+]1ccn(C)c1 [3-ethyl-1-methyl-1H-imidazolium hexyl sulfate]
1101.49

GET /values?readout=mass density&item= CCn1cc[n+](C)c1.O=S(=O)([O-])O [1-ethyl-3-methylimidazolium hydrogen sulfate]
1339.14

----------
Would you kindly list viscosity for each of these compounds?
Details: 283.15 K; 101.33 kPa; Liquid; Concentric cylinders viscometry
Report only the number, with the unit mPa·s understood.

GET /values?readout=viscosity&item= CCCCCCOS(=O)(=O)[O-].CC[n+]1ccn(C)c1 [3-ethyl-1-methyl-1H-imidazolium hexyl sulfate]
875

GET /values?readout=viscosity&item= CCCCOS(=O)(=O)[O-].CC[n+]1ccn(C)c1 [3-ethyl-1-methylimidazolium butyl sulfate]
468.4

GET /values?readout=viscosity&item= CCn1cc[n+](C)c1.O=S(=O)([O-])O [1-ethyl-3-methylimidazolium hydrogen sulfate]
5756.7

GET /values?readout=viscosity&item= CCn1cc[n+](C)c1.COS(=O)(=O)[O-] [1-ethyl-3-methylimidazolium methylsulfate]
169.5

GET /values?readout=viscosity&item= CCCCCCCCOS(=O)(=O)[O-].CCn1cc[n+](C)c1 [1-ethyl-3-methylimidazolium octyl sulfate]
1879
